system: OVCAR-4 ovarian; experiment: NCI-60 one-dose screen, 48 h; conditions: 10 µM unless noted
This is part of a sample that, as a whole, favours compounds with a hit. Of some 83,000 tested, about 20% had one in any assay. Active and inactive are the calls of the source. Rule for the calls: active = growth percent below 10; inactive = the rest.
Possible outcomes: active, inactive

>>> label_value("COc1ccc(Nc2ncc(Br)c(NCCCNC(=O)c3cccs3)n2)cc1")
"inactive"
>>> label_value("CN1CCN(c2cc(Nc3cc(C4CC4)[nH]n3)nc(Nc3ccc(CC(=O)NCc4cccc(F)c4)cc3)n2)CC1")
"inactive"
>>> label_value("CCC(C(=O)[C@@H](C)[C@@H](O)[C@H](C)[C@@H]1O[C@@H]([C@@H](CC)C(=O)ONC(=O)c2ccccc2)CC[C@@H]1C)[C@H]1O[C@]2(C=CC(=O)[C@]3(CC[C@@](C)([C@H]4CC[C@](O)(CC)[C@H](C)O4)O3)O2)[C@H](C)C[C@@H]1C (stereo partly drawn)")
"inactive"
>>> label_value("CSc1nc2ccccc2cc1/C=[N+](\\[O-])c1ccccc1")
"inactive"
>>> label_value("O=c1c2cnn(-c3ccccc3)c2n2c(CN3CCOCC3)nnc2n1-c1ccccc1")
"inactive"
>>> label_value("Cc1ccc(Nn2c(SCC(=O)Nc3nc(-c4ccccc4)cs3)nc(C)c2C)cc1")
"inactive"
>>> label_value("Cc1cccc(/C=C/c2c(C(=O)/C=C/c3ccccc3)c(C)nc3ccccc23)c1")
"active"
>>> label_value("Cn1ccnc1C(=O)/C=C/c1ccc(CC(=O)Nc2cc(C(F)(F)F)cc(C(F)(F)F)c2)cc1")
"inactive"
>>> label_value("Cn1cc(-c2csc(-c3c[nH]c4ccc(Br)cc34)n2)c2ccnc(Cl)c21")
"inactive"
>>> label_value("O=C1/C(=C\\c2ccc3nccnc3c2)SC(=S)N1CCc1ccc(O)cc1")
"inactive"
>>> label_value("CN1CCc2nc3sc(C(N)=O)c(N)c3c(-c3cccs3)c2C1")
"inactive"
>>> label_value("COc1ccc2cc1Oc1ccc(cc1)C[C@H]1c3c(cc4c(c3Oc3cc5c(cc3OC)CCN(C)[C@@H]5C2)OCO4)CCN1C")
"inactive"
>>> label_value("CCCCNCCCCCNc1cc(OC)cc2cccnc12")
"inactive"
>>> label_value("O=C1C(=O)N(Cc2ccc(-c3ccccc3)cc2)c2ccc(OC(F)(F)F)cc21")
"inactive"
>>> label_value("CS(=O)(=O)Nc1cc(-c2ccc3ncnc(Nc4ccc5c(cnn5Cc5cccc(F)c5)c4)c3c2)cnc1Cl")
"inactive"
>>> label_value("C=C(C)[C@@H]1CC[C@]2(CO)CC[C@]3(C)[C@H](CC[C@@H]4[C@@]5(C)CC[C@H](NCO)C(C)(C)[C@@H]5CC[C@]43C)[C@@H]12")
"active"
>>> label_value("Cn1cc(-c2csc(-c3cn(C(=O)OC(C)(C)C)c4ccc(Br)cc34)n2)c2ccnc(Cl)c21")
"inactive"
>>> label_value("O=S(=O)(c1ccccc1)n1cc2c(c1)-c1nc(Nc3ncccn3)sc1CC2")
"active"

###

system: A498 renal; assay: NCI-60 one-dose screen, 48 h (100 = growth as untreated, 0 = no growth, -100 = all killed); conditions: 10 µM unless noted
The panel holds about 83,000 compounds, 20% with a hit somewhere; the sample as a whole holds those more often.
ASSAY_METRIC: growth (%)

>>> measured("O=C1/C(=C/c2cn(-c3ccccc3)nc2-c2ccccc2)SC(=S)N1C1CCCCC1")
66.9
>>> measured("C=C1CC[C@@H]2[C@](C)(COC(C)=O)[C@H](OC(C)=O)CC[C@@]2(C)[C@@H]1CC(Nc1ccc(S(=O)(=O)Nc2ncccn2)cc1)C1=CCOC1=O (stereo not given in full)")
79
>>> measured("N#Cc1c(-c2ccc(Cl)cc2)nc(NN2C(=O)c3ccccc3C2=O)nc1N1CCOCC1")
94.7
>>> measured("COc1ccc(C(O)c2cc3c(N)c(C(=O)Nc4cccc(Br)c4)sc3nc2C)cc1 (stereo not given)")
-9.2
>>> measured("COC(CC(F)F)c1cn(S(=O)(=O)c2ccc(C)cc2)c2ccccc12 (stereo not given)")
42.3

###

system: OVCAR-4 ovarian; test: NCI-60 one-dose screen, 48 h (100 = growth as untreated, 0 = no growth, -100 = all killed); settings: 10 µM unless noted
Compounds without any hit were thinned out: in the full panel of roughly 83,000, 20% have a hit.
ASSAY_METRIC: growth (%)

>>> measured("COc1cc(/C=C/C(=O)c2ccc(F)cc2)ccc1OCCCCOc1ccc(/C=C/C(=O)c2c(C)nc3ccccc3c2C)cc1OC")
76.5
>>> measured("Oc1c(I)cc(I)cc1CNCCN(Cc1ccccn1)Cc1ccccn1")
-48.5
>>> measured("CCCCCCCCCc1ccc(OCCOCCOCCOCCOCCOCCOCCOCCOCCO)cc1")
22.4
>>> measured("CCCCCC(/C=N\\NC(=S)N/N=C/C(=C/c1ccccc1)CCCCC)=C\\c1ccccc1")
56.2
>>> measured("COc1cc(OC)c(NC(=O)c2cc3ccccc3cc2O)cc1Cl")
41.4
>>> measured("O=c1c2cccc3c(N4CCCC4)ccc(c32)c2nc3ccccc3n12")
78.8
>>> measured("c1ccc([P+](c2ccccc2)(c2ccccc2)c2ccc3c4ccc([P+](c5ccccc5)(c5ccccc5)c5ccccc5)c5cccc(c6cccc2c63)c54)cc1")
23.6
>>> measured("COC(=O)CC[C@@H]1O[C@@H](c2cccc(C(F)(F)F)c2)[C@@H](O)[C@H]1O")
105
>>> measured("N#Cc1ccc(O)c(C2=NCC(c3ccccc3)O2)c1 (centres undefined)")
9.62

###

tested on: RXF 393 renal; experiment: NCI-60 one-dose screen, 48 h (100 = growth as untreated, 0 = no growth, -100 = all killed); conditions: 10 µM unless noted
Compounds without any hit were thinned out: in the full panel of roughly 83,000, 20% have a hit.
Listed next: entries and their corresponding growth.
ASSAY_METRIC: growth (%)

>>> measured("CCOC(=O)C1=C(C)NC(=O)NC1c1c(Cl)n(CCCl)c2ccccc12 (stereo not given)")
98.1
>>> measured("COC(=O)c1c2c(c(C)[n+]([O-])c1C)C(=O)C(NCc1cccc(OC)c1)=CC2=O")
38.7
>>> measured("COc1ccc(-c2cc(-c3ccc(Cl)cc3)c(C#N)c(=O)n2Cc2ccc(C(=O)Nc3ccccc3N)cc2)cc1")
54.5
>>> measured("CS(=O)(=O)Nc1cncc(-c2ccc3ncnc(Nc4cncc(Cl)c4)c3c2)c1")
87.3
>>> measured("Cc1ccc(/C=C2\\COc3ccc(O)cc3C2=O)cc1")
96.3
>>> measured("Cc1c2cnccc2c(C)c2c1c1cc(C#N)ccc1n2C")
-85.1
>>> measured("CCOc1ccc(NC(=O)CSc2oc(-c3ccccc3)nc2S(=O)(=O)c2ccc(C)cc2)cc1")
62.1
>>> measured("Fc1cc2c(cc1Cl)N(c1ncnc3ccc(-c4ccc5n[nH]nc5c4)cc13)CC2")
78.7
>>> measured("CSc1nc2ncc([N+](=O)[O-])c(=O)n2[nH]1")
105
>>> measured("CCCCCN1C(=O)/C(=c2\\sc3n(c2=O)C2C(NN=3)N(CC)C(=O)N2CC)c2ccccc21 (stereo not given)")
-28.9

###

tested on: OVCAR-4 ovarian; test: NCI-60 one-dose screen, 48 h; conditions: 10 µM unless noted
The panel holds about 83,000 compounds, 20% with a hit somewhere; the sample as a whole holds those more often. Active and inactive are the calls of the source. Rule for the calls: active = growth percent below 10; inactive = the rest.
Possible outcomes: T for active, F for inactive

>>> label_value("CCOC(=O)c1csc(NC(=O)COc2ccc(/C=C3\\Oc4ccccc4C3=O)cc2)n1")
"F"
>>> label_value("COC1=CC(c2ccc[nH]2)=N/C1=C\\c1[nH]c(C)c(CC(=O)OCc2ccccc2)c1CCC(=O)OCc1ccccc1")
"F"
>>> label_value("COc1ccc(C(=O)/C=C/c2c(C(F)(F)F)nc3ccccn23)cc1OC")
"T"
>>> label_value("Cn1c(=O)c2nc(/C=C/c3ccccc3)c(=O)[nH]c2n(C)c1=S")
"F"
>>> label_value("CC(C)c1ccc(C(=O)Nc2sc3c(c2C(N)=O)CCC(=O)C3)cc1")
"T"

###

tested on: NCI-H522 lung; assay: NCI-60 one-dose screen, 48 h (100 = growth as untreated, 0 = no growth, -100 = all killed); conditions: 10 µM unless noted
The panel holds about 83,000 compounds, 20% with a hit somewhere; the sample as a whole holds those more often.
Listed next: entries and their corresponding growth.
ASSAY_METRIC: growth (%)

>>> measured("O=C(O)c1cn(C2CC2)c2cc(N3CCN(Cc4ccc5ccccc5c4O)CC3)c(F)cc2c1=O")
24.8
>>> measured("CC/C(=C(/c1ccc(Cl)cc1)c1ccc(OCCN2CCCCC2)cc1)c1ccc(OC)cc1")
65.1
>>> measured("Cc1ccc(-c2nc(N3CCCNCC3)c3oc(-c4ccccc4)nc3n2)cc1")
-74.6
>>> measured("O=C1c2c(c3c4ccccc4[nH]c3c3ccc4ccccc4c23)C(=O)N1CCN1CCOCC1")
29.1
>>> measured("Cn1ccnc1C(=O)/C=C/c1ccc(C(=O)Nc2ccccc2O)cc1")
60.4
